test: anticonvulsant potency and neurotoxicity in rodents, summary, in vivo study, quantitative, MES, scMET, kindled rat, Frings mice (AID 424); conditions: oral mouse scMET ED50
Observed Property: ED50 (mg/kg)

[[record]]
compound = "CCN(CC)CC(=O)Nc1c(C)cccc1C"
comparison_symbol = ">"
value_measured = 140

[[record]]
compound = "CCC1(C)CC(=O)NC1=O (centres undefined)"
comparison_symbol = "="
value_measured = 203

[[record]]
compound = "NC(=O)N1c2ccccc2C=Cc2ccccc21"
comparison_symbol = "="
value_measured = 40.9

[[record]]
compound = "O=C1CN=C(c2ccccc2Cl)c2cc([N+](=O)[O-])ccc2N1"
comparison_symbol = "="
value_measured = 0.03


###

assay: anticonvulsant potency and neurotoxicity in rodents, summary, in vivo study, quantitative, MES, scMET, kindled rat, Frings mice (AID 424); conditions: oral mouse MES ED50
Some compounds, each annotated with its measured ED50.
Observed Property: ED50

[[record]]
compound = "O=C1CN=C(c2ccccc2Cl)c2cc([N+](=O)[O-])ccc2N1"
value_measured = "42.8 mg/kg"

[[record]]
compound = "CCN(CC)CC(=O)Nc1c(C)cccc1C"
value_measured = "21 mg/kg"

[[record]]
compound = "NC(=O)N1c2ccccc2C=Cc2ccccc21"
value_measured = "11.9 mg/kg"

[[record]]
compound = "CCC1(C)CC(=O)NC1=O (centres undefined)"
value_measured = "> 1000 mg/kg"


###

Some compounds, each annotated with its measured ED50.
system: mouse i.p. maximal electroshock seizure protection, ED50; assay: anticonvulsant potency and neurotoxicity in rodents, summary, in vivo study, quantitative, MES, scMET, kindled rat, Frings mice (AID 424)
Observed Property: ED50

[[record]]
structure_as_smiles = "CCC1(c2ccccc2)C(=O)NC(=O)NC1=O"
observed_property = "ED50"
value_measured = "11.3 mg/kg"

[[record]]
structure_as_smiles = "CCN(CC)CC(=O)Nc1c(C)cccc1C"
observed_property = "ED50"
value_measured = "14.4 mg/kg"

[[record]]
structure_as_smiles = "NC(=O)N1c2ccccc2C=Cc2ccccc21"
observed_property = "ED50"
value_measured = "7.81 mg/kg"

[[record]]
structure_as_smiles = "O=C1CN=C(c2ccccc2Cl)c2cc([N+](=O)[O-])ccc2N1"
observed_property = "ED50"
value_measured = "25.5 mg/kg"


###

test: anticonvulsant potency and neurotoxicity in rodents, summary, in vivo study, quantitative, MES, scMET, kindled rat, Frings mice (AID 424); conditions: i.p. mouse scBic ED50
Observed Property: ED50

[[record]]
molecule = "CCC1(C)CC(=O)NC1=O (stereo not given)"
value_measured = "272 mg/kg"

[[record]]
molecule = "CCC1(c2ccccc2)C(=O)NC(=O)NC1=O"
value_measured = "37.7 mg/kg"

[[record]]
molecule = "O=C1CN=C(c2ccccc2Cl)c2cc([N+](=O)[O-])ccc2N1"
value_measured = "0.039 mg/kg"

[[record]]
molecule = "CCN(CC)CC(=O)Nc1c(C)cccc1C"
value_measured = "> 70 mg/kg"

[[record]]
molecule = "NC(=O)N1c2ccccc2C=Cc2ccccc21"
value_measured = "> 50 mg/kg"

